Provide the reported DR/DR LNA of each item.
- test-description: Probe fluorescence ratio response to linolenic acid relative to ADIFAB2
- Assay type: binding
- condition: response relative to ADIFAB2

Q) Quick check: DR/DR LNA of 72A 73W 74S (protein, listed as Rattus norvegicus, PEPTIDE (1)...(131) wild-type rat intestinal fatty acid binding protein) AFDGTWKVDRNENYEKFMEKMGINVVKRKLGAHDNLKLTITQEGNKFTVKESSNFRNIDVVFELGVDFAYSAWSGTELTGTWTMEGNKLVGKFKRVDNGKELIAVREISGNELIQTYTYEGVEAKRIFKKE ?
A) 4.401

Q) What does the record list as DR/DR LNA for 106D3, 72A (protein, listed as Rattus norvegicus, PEPTIDE (1)...(131) wild-type rat intestinal fatty acid binding protein) AFDGTWKVDRNENYEKFMEKMGINVVKRKLGAHDNLKLTITQEGNKFTVKESSNFRNIDVVFELGVDFAYSAADGTELTGTWTMEGNKLVGKFKRVDNGKELIAVDEISGNELIQTYTYEGVEAKRIFKKE ?
A) 0.77

Q) Please give the measured DR/DR LNA for this molecule: 73W, 72A (protein, listed as Rattus norvegicus, PEPTIDE (1)...(131) wild-type rat intestinal fatty acid binding protein) AFDGTWKVDRNENYEKFMEKMGINVVKRKLGAHDNLKLTITQEGNKFTVKESSNFRNIDVVFELGVDFAYSAWDGTELTGTWTMEGNKLVGKFKRVDNGKELIAVREISGNELIQTYTYEGVEAKRIFKKE
A) 1.93

Q) Which DR/DR LNA value belongs to 36I, 72A (protein, listed as Rattus norvegicus, PEPTIDE (1)...(131) wild-type rat intestinal fatty acid binding protein) AFDGTWKVDRNENYEKFMEKMGINVVKRKLGAHDNIKLTITQEGNKFTVKESSNFRNIDVVFELGVDFAYSAADGTELTGTWTMEGNKLVGKFKRVDNGKELIAVREISGNELIQTYTYEGVEAKRIFKKE ?
A) 1.004

Q) If you can, please state the reported DR/DR LNA value of 14M 18L 31W 73I 117G 72A (protein, listed as Rattus norvegicus, PEPTIDE (1)...(131) wild-type rat intestinal fatty acid binding protein) AFDGTWKVDRNENMEKFLEKMGINVVKRKLWAHDNLKLTITQEGNKFTVKESSNFRNIDVVFELGVDFAYSAIDGTELTGTWTMEGNKLVGKFKRVDNGKELIAVREISGNELIQTGTYEGVEAKRIFKKE .
A) 1.869

Q) Find the recorded DR/DR LNA belonging to 106H2, 72A (protein, listed as Rattus norvegicus, PEPTIDE (1)...(131) wild-type rat intestinal fatty acid binding protein) AFDGTWKVDRNENYEKFMEKMGINVVKRKLGAHDNLKLTITQEGNKFTVKESSNFRNIDVVFELGVDFAYSAADGTELTGTWTMEGNKLVGKFKRVDNGKELIAVHEISGNELIQTYTYEGVEAKRIFKKE and report it.
A) 0.73

Q) Please give the measured DR/DR LNA for this molecule: 14L 18L 31L 73G 117V 72A (protein, listed as Rattus norvegicus, PEPTIDE (1)...(131) wild-type rat intestinal fatty acid binding protein) AFDGTWKVDRNENLEKFLEKMGINVVKRKLLAHDNLKLTITQEGNKFTVKESSNFRNIDVVFELGVDFAYSAGDGTELTGTWTMEGNKLVGKFKRVDNGKELIAVREISGNELIQTVTYEGVEAKRIFKKE
A) 1.139

Q) Requested read-out: DR/DR LNA. Entry: 68Q, 72A (protein, listed as Rattus norvegicus, PEPTIDE (1)...(131) wild-type rat intestinal fatty acid binding protein) AFDGTWKVDRNENYEKFMEKMGINVVKRKLGAHDNLKLTITQEGNKFTVKESSNFRNIDVVFELGVDQAYSAADGTELTGTWTMEGNKLVGKFKRVDNGKELIAVREISGNELIQTYTYEGVEAKRIFKKE
A) 0.38

Q) What does the record list as DR/DR LNA for 55Q1, 72A (protein, listed as Rattus norvegicus, PEPTIDE (1)...(131) wild-type rat intestinal fatty acid binding protein) AFDGTWKVDRNENYEKFMEKMGINVVKRKLGAHDNLKLTITQEGNKFTVKESSNQRNIDVVFELGVDFAYSAADGTELTGTWTMEGNKLVGKFKRVDNGKELIAVREISGNELIQTYTYEGVEAKRIFKKE ?
A) 0.49

Q) DR/DR LNA lookup needed for 18I 31I 55M 73V 72A (protein, listed as Rattus norvegicus, PEPTIDE (1)...(131) wild-type rat intestinal fatty acid binding protein) AFDGTWKVDRNENYEKFIEKMGINVVKRKLIAHDNLKLTITQEGNKFTVKESSNMRNIDVVFELGVDFAYSAVDGTELTGTWTMEGNKLVGKFKRVDNGKELIAVREISGNELIQTYTYEGVEAKRIFKKE , thanks.
A) 2.408
